For each record, write down the corresponding inhibition at 72 h, 10 ug/ml.
- PROCEDURE DETAILS: Cytotoxicity against human MCF10A cells assessed as growth inhibition at 10 ug/ml after 72 hrs by MTT assay
- Type: cell-based, MCF-10A
- CONDITION SUMMARY: read-out: GI
Mention the unit after the number when you answer.

Prompt: Given the compound CC(=O)Oc1ccc(COP(=O)(OCc2ccc(OC(C)=O)cc2)OC2C3OC4OC(C3OCc3ccccc3)C(OCc3ccccc3)C2O4)cc1 (stereo not drawn) , what is its reported inhibition at 72 h, 10 ug/ml?
Completion: 20.1%

Prompt: Given the compound CC(=O)Oc1ccc(COP(=O)(OCc2ccc(OC(C)=O)cc2)O[C@@H]2[C@H](OCc3ccccc3)[C@H](OCc3ccccc3)[C@@H](OP(=O)(OCc3ccc(OC(C)=O)cc3)OCc3ccc(OC(C)=O)cc3)[C@H](OP(=O)(OCc3ccc(OC(C)=O)cc3)OCc3ccc(OC(C)=O)cc3)[C@H]2OCc2ccccc2)cc1 , what is its reported inhibition at 72 h, 10 ug/ml?
Completion: 37.4%

Prompt: Given the compound C#CCO[C@@H]1[C@@H](OCc2ccccc2)[C@H](OP(=O)(OCc2ccc(OC(C)=O)cc2)OCc2ccc(OC(C)=O)cc2)[C@H](OP(=O)(OCc2ccc(OC(C)=O)cc2)OCc2ccc(OC(C)=O)cc2)[C@H](OP(=O)(OCc2ccc(OC(C)=O)cc2)OCc2ccc(OC(C)=O)cc2)[C@H]1OCc1ccccc1 , what is its reported inhibition at 72 h, 10 ug/ml?
Completion: 15.4%

Prompt: Given the compound C#CCO[C@@H]1[C@@H](OCc2ccccc2)[C@H](OP(=O)(OCc2ccc(OC(C)=O)cc2)OCc2ccc(OC(C)=O)cc2)[C@H](OCc2ccccc2)[C@H](OP(=O)(OCc2ccc(OC(C)=O)cc2)OCc2ccc(OC(C)=O)cc2)[C@H]1OCc1ccccc1 , what is its reported inhibition at 72 h, 10 ug/ml?
Completion: 38.6%

Prompt: Given the compound CC(=O)Oc1ccc(COP(=O)(OCc2ccc(OC(C)=O)cc2)O[C@@H]2[C@@H](OCc3ccccc3)[C@H](OCc3ccccc3)[C@@H](OP(=O)(OCc3ccc(OC(C)=O)cc3)OCc3ccc(OC(C)=O)cc3)[C@@H](OP(=O)(OCc3ccc(OC(C)=O)cc3)OCc3ccc(OC(C)=O)cc3)[C@H]2OCc2ccccc2)cc1 , what is its reported inhibition at 72 h, 10 ug/ml?
Completion: 5.1%

Prompt: Given the compound CC(=O)Oc1ccc(COP(=O)(OCc2ccc(OC(C)=O)cc2)O[C@H]2[C@H](OCc3ccccc3)[C@@H](OCc3ccccc3)[C@@H](OP(=O)(OCc3ccc(OC(C)=O)cc3)OCc3ccc(OC(C)=O)cc3)[C@@H](OP(=O)(OCc3ccc(OC(C)=O)cc3)OCc3ccc(OC(C)=O)cc3)[C@@H]2OCc2ccccc2)cc1 , what is its reported inhibition at 72 h, 10 ug/ml?
Completion: 15.6%

Prompt: Given the compound CC(=O)Oc1ccc(COP(=O)(OCc2ccc(OC(C)=O)cc2)OC2C3OC4OC(C3OCc3ccccc3)C(OP(=O)(OCc3ccc(OC(C)=O)cc3)OCc3ccc(OC(C)=O)cc3)C2O4)cc1 (stereo not drawn) , what is its reported inhibition at 72 h, 10 ug/ml?
Completion: 38.8%

Prompt: Given the compound CC(=O)Oc1ccc(COP(=O)(OCc2ccc(OC(C)=O)cc2)O[C@@H]2[C@@H](OCc3ccccc3)[C@H](OP(=O)(OCc3ccc(OC(C)=O)cc3)OCc3ccc(OC(C)=O)cc3)[C@H](OCc3ccccc3)[C@H](OCc3ccccc3)[C@H]2OCc2ccccc2)cc1 , what is its reported inhibition at 72 h, 10 ug/ml?
Completion: 10.5%
